- target-entity: UniProt:Q9GZT4
- Sequence (Q9GZT4 whole entry): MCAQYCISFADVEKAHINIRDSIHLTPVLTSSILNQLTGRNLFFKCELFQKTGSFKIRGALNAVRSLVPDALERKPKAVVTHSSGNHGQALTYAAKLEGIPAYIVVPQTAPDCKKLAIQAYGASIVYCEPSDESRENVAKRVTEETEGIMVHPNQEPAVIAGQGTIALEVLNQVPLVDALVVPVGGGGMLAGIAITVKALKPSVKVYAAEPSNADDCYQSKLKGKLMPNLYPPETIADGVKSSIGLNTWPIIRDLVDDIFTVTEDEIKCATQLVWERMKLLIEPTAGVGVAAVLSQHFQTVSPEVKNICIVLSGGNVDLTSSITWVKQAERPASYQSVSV

{"columns": ["line-notation", "target-entity", "readout-unit", "IC50"],
 "data": [
  ["COc1ccccc1SCCC(=O)OCC(=O)Nc1ccc(NC(C)=O)cc1", "UniProt:Q9GZT4", "µM", 836]
]}

Origin of values: ChEMBL document CHEMBL4184097
